Target: T1, recombinant human IL-31 (as used in the NHK STAT3 phosphorylation assay of Example 5) (human, UniProt Q6EBC2 24-164, limits assumed)
T1 sequence: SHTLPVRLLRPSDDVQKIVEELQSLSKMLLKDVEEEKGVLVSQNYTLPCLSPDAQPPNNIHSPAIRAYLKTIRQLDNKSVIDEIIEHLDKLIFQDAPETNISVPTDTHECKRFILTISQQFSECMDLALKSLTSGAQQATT
Test: cell-based or functional assay
parameter_measured: IC50, IL-31-induced STAT3 phosphorylation in NHK, Exp 7 (nM)
Entry rule: numbers only, all in nM.

Exercise: Return IC50, IL-31-induced STAT3 phosphorylation in NHK, Exp 7 (reported value) for this binder: humanized 292.12.3.1 construct clone 14 (12VH1-gly + HC(M69L, R71A, T73K, V78A, R94F) + LC(fback)) (antibody, human IgG4, V domains shown) VH: QVQLVQSGAEVKKPGASVKVSCKASGYTFTRYWMQWVRQAPGQGLEWMGAIYPGDGDTRYSQKFQGRVTLTADKSISTAYMELSSLRSEDTAVYYCAFPDGYYAAPYGMDYWGQGTLVTVSS VL: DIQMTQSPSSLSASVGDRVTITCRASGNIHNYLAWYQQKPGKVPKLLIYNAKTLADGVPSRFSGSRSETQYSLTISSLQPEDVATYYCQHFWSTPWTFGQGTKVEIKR
Key: 242

Exercise: Complete the entry with IC50, IL-31-induced STAT3 phosphorylation in NHK, Exp 7 for humanized 292.12.3.1 construct clone 10 (12VH1-gly + LC(fback)) (antibody, human IgG4, V domains shown) VH: QVQLVQSGAEVKKPGASVKVSCKASGYTFTRYWMQWVRQAPGQGLEWMGAIYPGDGDTRYSQKFQGRVTMTRDTSISTVYMELSSLRSEDTAVYYCARPDGYYAAPYGMDYWGQGTLVTVSS VL: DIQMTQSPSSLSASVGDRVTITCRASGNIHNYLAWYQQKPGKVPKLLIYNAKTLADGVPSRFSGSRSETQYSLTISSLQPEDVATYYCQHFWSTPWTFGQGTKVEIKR
Key: 224

Exercise: Return IC50, IL-31-induced STAT3 phosphorylation in NHK, Exp 7 (reported value) for this binder: humanized 292.12.3.1 construct clone 18 (12VH1-gly + HC(fback) + LC(G66R, G68E, F71Y)) (antibody, human IgG4, V domains shown) VH: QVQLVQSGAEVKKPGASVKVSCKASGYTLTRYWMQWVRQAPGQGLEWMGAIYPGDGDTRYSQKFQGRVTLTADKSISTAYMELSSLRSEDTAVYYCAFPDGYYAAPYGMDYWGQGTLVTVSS VL: DIQMTQSPSSLSASVGDRVTITCRASGNIHNYLAWYQQKPGKVPKLLIYNAKTLADGVPSRFSGSRSETDYTLTISSLQPEDVATYYCQHFWSTPWTFGQGTKVEIKR
Key: 2.68

Exercise: Please look at this binder and report its IC50, IL-31-induced STAT3 phosphorylation in NHK, Exp 7: humanized 292.12.3.1 construct clone 9 (12VH1-gly + HC(fback)) (antibody, human IgG4, V domains shown, also called 09) VH: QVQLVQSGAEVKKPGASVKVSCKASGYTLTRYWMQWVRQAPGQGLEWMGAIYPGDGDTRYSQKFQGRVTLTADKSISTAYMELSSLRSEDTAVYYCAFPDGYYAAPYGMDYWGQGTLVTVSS VL: DIQMTQSPSSLSASVGDRVTITCRASGNIHNYLAWYQQKPGKVPKLLIYNAKTLADGVPSRFSGSGSGTDFTLTISSLQPEDVATYYCQHFWSTPWTFGQGTKVEIKR
Key: 7.37

Exercise: Fill in IC50, IL-31-induced STAT3 phosphorylation in NHK, Exp 7 for record humanized 292.12.3.1 construct clone 13 (12VH1-gly + HC(F29L, M69L, R71A, T73K, V78A) + LC(fback)) (antibody, human IgG4, V domains shown) VH: QVQLVQSGAEVKKPGASVKVSCKASGYTLTRYWMQWVRQAPGQGLEWMGAIYPGDGDTRYSQKFQGRVTLTADKSISTAYMELSSLRSEDTAVYYCARPDGYYAAPYGMDYWGQGTLVTVSS VL: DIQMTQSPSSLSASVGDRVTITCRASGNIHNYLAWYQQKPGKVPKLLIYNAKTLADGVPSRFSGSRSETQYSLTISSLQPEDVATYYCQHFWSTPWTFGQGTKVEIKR
Key: 211

Exercise: Complete the entry with IC50, IL-31-induced STAT3 phosphorylation in NHK, Exp 7 for humanized 292.12.3.1 construct clone 16 (12VH1-gly + HC(fback) + LC(G66R, G68E, D70Q, T72S)) (antibody, human IgG4, V domains shown) VH: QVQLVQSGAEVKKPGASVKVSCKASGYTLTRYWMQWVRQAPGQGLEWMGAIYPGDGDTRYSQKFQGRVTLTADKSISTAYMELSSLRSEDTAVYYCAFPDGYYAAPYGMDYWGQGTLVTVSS VL: DIQMTQSPSSLSASVGDRVTITCRASGNIHNYLAWYQQKPGKVPKLLIYNAKTLADGVPSRFSGSRSETQFSLTISSLQPEDVATYYCQHFWSTPWTFGQGTKVEIKR
Key: 6.22
